// provenance: the OPERA property sets (Mansouri et al. 2018)

property: boiling point (°C)

[[record]]
molecule = "CCC(C)NC(C)CC (stereo not drawn)"
property = "boiling point"
endpoint_value = 135

[[record]]
molecule = "CCCCCCCSCCCCCCC"
property = "boiling point"
endpoint_value = 298

[[record]]
molecule = "C(=Nc1ccccc1)c1ccccc1"
property = "boiling point"
endpoint_value = 310


###

This listing pairs compounds with measured boiling point.
property: boiling point

[[record]]
compound = "C=Cc1ccc(C(C)C)cc1"
endpoint_value = "204 °C"

[[record]]
compound = "CC(=O)OCCCl"
endpoint_value = "145 °C"

[[record]]
compound = "FC(F)(F)COCC(F)(F)F"
endpoint_value = "63.9 °C"

[[record]]
compound = "CCCCC(C)(C)CCC"
endpoint_value = "158 °C"

[[record]]
compound = "CC1CCSC1 (configuration not stated)"
endpoint_value = "139 °C"

[[record]]
compound = "Cc1ccc2ccc(C)cc2c1"
endpoint_value = "265 °C"

[[record]]
compound = "COc1ccc(C=O)c(OC)c1"
endpoint_value = "290 °C"

[[record]]
compound = "Cc1ccc(O)c(C)c1"
endpoint_value = "211 °C"

[[record]]
compound = "CCO[Si](CCC#N)(OCC)OCC"
endpoint_value = "224 °C"

[[record]]
compound = "C[Si](C)(C)CCl"
endpoint_value = "98.5 °C"

[[record]]
compound = "CCCCCC(=O)O"
endpoint_value = "205 °C"

[[record]]
compound = "OCCC1CCNCC1"
endpoint_value = "228 °C"

[[record]]
compound = "Cc1ccc(CO)cc1"
endpoint_value = "217 °C"

[[record]]
compound = "CCOC(=O)c1ccc(N)cc1"
endpoint_value = "310 °C"

[[record]]
compound = "O=C(c1ccccc1)C(Cl)Cl"
endpoint_value = "249 °C"

[[record]]
compound = "C#Cc1ccccc1"
endpoint_value = "143 °C"

[[record]]
compound = "Brc1nccs1"
endpoint_value = "171 °C"

[[record]]
compound = "C=CCBr"
endpoint_value = "70.1 °C"

[[record]]
compound = "CC(=O)OC(C)(C)C"
endpoint_value = "97 °C"

[[record]]
compound = "S=C=Nc1cccc(Cl)c1"
endpoint_value = "250 °C"

[[record]]
compound = "c1ccc2cc3c4ccccc4c4ccccc4c3cc2c1"
endpoint_value = "524 °C"

[[record]]
compound = "Cc1c(N)cccc1Cl"
endpoint_value = "245 °C"

[[record]]
compound = "CC1CC(=O)CC(C)(C)C1 (configuration not stated)"
endpoint_value = "189 °C"

[[record]]
compound = "FC(Cl)C(F)(F)Cl (configuration not stated)"
endpoint_value = "29.5 °C"

[[record]]
compound = "Fc1c(F)c(F)c(Br)c(F)c1F"
endpoint_value = "137 °C"

[[record]]
compound = "Cc1ccn(-c2ccccc2)n1"
endpoint_value = "255 °C"

[[record]]
compound = "CN(CCO)CCO"
endpoint_value = "247 °C"

[[record]]
compound = "Cc1ccccc1-c1ccccc1"
endpoint_value = "256 °C"

[[record]]
compound = "CCC[C@H]1CCCCC1=O"
endpoint_value = "197 °C"

[[record]]
compound = "FCCCl"
endpoint_value = "53.1 °C"

[[record]]
compound = "CCOC(=O)CCC(=O)OC"
endpoint_value = "208 °C"

[[record]]
compound = "COC(=O)CBr"
endpoint_value = "132 °C"

[[record]]
compound = "Cc1cnc(Cl)nc1Cl"
endpoint_value = "235 °C"

[[record]]
compound = "Clc1cc(Cl)cc(Br)c1"
endpoint_value = "232 °C"

[[record]]
compound = "C1CC2CC12 (configuration not stated)"
endpoint_value = "45.5 °C"

[[record]]
compound = "CCOC(=O)CCC(C)=O"
endpoint_value = "206 °C"

[[record]]
compound = "OCCN(CCO)CCO"
endpoint_value = "335 °C"

[[record]]
compound = "CC[Si](CC)(CC)CC"
endpoint_value = "155 °C"

[[record]]
compound = "CC=C(C)C(C)C(C)=O (configuration not stated)"
endpoint_value = "154 °C"

[[record]]
compound = "CCc1ccc(C)o1"
endpoint_value = "118 °C"

[[record]]
compound = "CC(=O)Cl"
endpoint_value = "50.7 °C"

[[record]]
compound = "CCC(O)(CC)C(C)C"
endpoint_value = "160 °C"

[[record]]
compound = "O=C(CCl)C(Cl)Cl"
endpoint_value = "172 °C"

[[record]]
compound = "COCC(C)OCC(C)OCC(C)O (configuration not stated)"
endpoint_value = "250 °C"

[[record]]
compound = "CC(C)(O)Cc1ccccc1"
endpoint_value = "215 °C"

[[record]]
compound = "FC(F)(F)C(F)(F)C(F)(F)C(F)(F)C(F)(F)C(F)(F)C(F)(F)C(F)(F)C(F)(F)F"
endpoint_value = "123 °C"

[[record]]
compound = "CCOC(=O)C1(C(=O)OCC)CCCC1"
endpoint_value = "210 °C"

[[record]]
compound = "CC(Cl)CCl (configuration not stated)"
endpoint_value = "95.5 °C"

[[record]]
compound = "C=CC(C)=O"
endpoint_value = "81.4 °C"

[[record]]
compound = "CCC(C)S (configuration not stated)"
endpoint_value = "84.5 °C"

[[record]]
compound = "CC(C)(C)CCl"
endpoint_value = "84.3 °C"

[[record]]
compound = "CCOC(=O)C(C)(C)C(C)=O"
endpoint_value = "182 °C"

[[record]]
compound = "CCC(C)C(C)C(C)=O (configuration not stated)"
endpoint_value = "158 °C"

[[record]]
compound = "CCc1cc(C(C)(C)C)c(O)c(C(C)(C)C)c1"
endpoint_value = "272 °C"

[[record]]
compound = "C1=COCC1"
endpoint_value = "54.5 °C"

[[record]]
compound = "CCC(CC)CO"
endpoint_value = "147 °C"

[[record]]
compound = "Cc1nccnc1C"
endpoint_value = "156 °C"

[[record]]
compound = "CCOC(=O)CC(=O)CC"
endpoint_value = "191 °C"

[[record]]
compound = "C[Si](Cl)(Cl)c1ccccc1"
endpoint_value = "206 °C"

[[record]]
compound = "C[C@@H](O)C(C)(C)O"
endpoint_value = "175 °C"

[[record]]
compound = "CF"
endpoint_value = "-78.4 °C"

[[record]]
compound = "CC1OC1C (configuration not stated)"
endpoint_value = "58.2 °C"

